# credit: patent US20190321401A1

# TARGET: T1, HPV 16 E6 peptide on HLA-A*02:01 (human)
# T1 peptide: TIHDIILECV
# EXPERIMENTAL_PROTOCOL: multimer staining
ASSAY_ENDPOINT: binding result

Ask: Item under review: TCR 60 (TCR, V domains shown) Valpha: QKEVEQNSGPLSVPEGAIASLNCTYSDRGSQSFFWYRQYSGKSPELIMFIYSNGDKEDGRFTAQLNKASQYVSLLIRDSQPSDSATYLCAVNMLGSGGSNYKLTFGKGTLLTVNP Vbeta: EPEVTQTPSHQVTQMGQEVILRCVPISNHLYFYWYRQILGQKVEFLVSFYNNEISEKSEIFDDQFSVERPDGSNFTLKIRSTKLEDSAMYFCAISRTVSYEQYFGPGTRLTVT . Reported binding result?
Reply: no recognition

Ask: Item under review: TCR 63 (TCR, V domains shown) Valpha: SQELEQSPQSLIVQEGKNLTINCTSSKTLYGLYWYKQKYGEGLIFLMMLQKGGEEKSHEKITAKLDEKKQQSSLHITASQPSHAGIYLCGADIDDYKLSFGAGTTVTVRA Vbeta: GAGVSQSPRYKVAKRGQDVALRCDPISGHVSLFWYQQALGQGPEFLTYFQNEAQLDKSGLPSDRFFAERPEGSVSTLKIQRTQQEDSAVYLCASRPRQGYNDNEQFFGPGTRLTVL . Reported binding result?
Reply: no recognition

Ask: Item under review: TCR 62 (TCR, V domains shown) Valpha: AQTVTQSQPEMSVQEAETVTLSCTYDTSENNYYLFWYKQPPSRQMILVIRQEAYKQQNATENRFSVNFQKAAKSFSLKISDSQLGDTAMYFCALYTYKYIFGTGTRLKVLA Vbeta: EAGVAQSPRYKIIEKRQSVAFWCNPISGHATLYWYQQILGQGPKLLIQFQNNGVVDDSQLPKDRFSAERLKGVDSTLKIQPAKLEDSAVYLCASSLDTRGSSYNEQFFGPGTRLTVL . Reported binding result?
Reply: no recognition
